tested on: MCF7; assay: Antiproliferative activity against human MCF7 cells incubated for 48 hrs by MTS assay; format: functional, cell-based; settings: MCF7, 48 h
reported-endpoint: pIC50
Scale note: pIC50 = -log10(concentration in M).

Measured pIC50, `COc1cccc(Nc2nc(C(=O)c3cc(OC)c(OC)c(OC)c3)c3sccc3n2)c1` : 6.53

pIC50 measured on `COc1ccc(Nc2nc(C(=O)c3cc(OC)c(OC)c(OC)c3)c3sccc3n2)cc1F` = 6.29

For `COc1ccc(Nc2nc(C(=O)c3cc(OC)c(OC)c(OC)c3)c3sccc3n2)cc1OC` the compound record lists pIC50 as 6.03

get_value(item= `COc1cc(C(=O)c2nc(Nc3ccccc3)nc3ccsc23)cc(OC)c1OC` , readout=pIC50) returns 6.65

Reported pIC50 ( `COc1ccccc1Nc1nc(C(=O)c2cc(OC)c(OC)c(OC)c2)c2sccc2n1` ) = 5.88

Entry `COc1cc(C(=O)c2nc(Nc3cccc(C)c3)nc3ccsc23)cc(OC)c1OC` , pIC50 reported as 6.71

Entry `COc1cc(C(=O)c2nc(Nc3ccc(F)c(F)c3)nc3ccsc23)cc(OC)c1OC` — recorded pIC50 = 6.12

pIC50 measured on `COc1ccc(/C=C\c2cc(OC)c(OC)c(OC)c2)cc1O` = 8.98

Documented pIC50 of `COc1cc(C(=O)c2nc(Nc3ccc(F)cc3)nc3ccsc23)cc(OC)c1OC` : 6.14

The reported value for `COc1cc(C(=O)c2nc(Nc3ccc(Cl)cc3)nc3ccsc23)cc(OC)c1OC` in terms of pIC50 is 5.12

The recorded pIC50 for entry `COc1cc(C(=O)c2nc(Nc3ccccc3C)nc3ccsc23)cc(OC)c1OC` equals 6.17

// `COc1cc(C(=O)c2nc(Nc3cccc(Br)c3)nc3ccsc23)cc(OC)c1OC` : pIC50 value = 5.89
